Test system: OVCAR-3 ovarian
Test: NCI tumour cell line growth inhibition, 48 h; in the data active = GI50 below about 0.43 µM; inactive = the rest
Outcome codes: active, inactive

{"columns": ["compound", "category.label"],
 "data": [
  ["CCn1c(-c2nonc2N)nc2c(C#CC(C)(C)O)nc(OC[C@@H](N)c3ccccc3)cc21", "inactive"],
  ["COc1ccc(-c2cn[nH]c2-c2cc(OC)c(OC)c(OC)c2)cc1", "active"],
  ["CCCOc1cc2ccccc2cc1C(=O)Nc1nc(N)c2c(ccc3nccc32)[nH]1", "active"],
  ["O=C1C=C[C@@H](COC2OC(CO)C(O)C(O)C2O)O1 (some centres not stated)", "inactive"],
  ["O=C1c2cc3c(cc2-c2c1c1ccc(F)cc1c(=O)n2C[C@H](O)[C@@H](O)[C@H](O)CO)OCO3", "active"],
  ["Cn1ccc2c3c(Oc4ccc(NC(N)=O)cc4)ccnc3ccc21", "inactive"],
  ["COc1cccc(C(=O)NC(c2ccc(C)cc2)c2cc(Cl)c3cccnc3c2O)c1 (configuration not stated)", "active"],
  ["CCC(=C/[C@H](C)C/C=C/C(C)=C/[C@@H](C)C(=O)[C@@H](C)[C@H](O)[C@@H](C)CC)/C=C/[C@H]1OC(=O)C=C[C@@H]1C", "active"],
  ["N#Cc1c[nH]n2c(N=Nc3ccc(Cl)cc3)c(O)nc12", "inactive"],
  ["CCOC(=O)C1=C(C)N(c2ccc(F)cc2F)[C@]2(C#N)C(O)=C(Cl)C(Cl)=C(O)[C@]12C#N", "inactive"],
  ["CN1CC[C@@H](NC(=O)Nc2ccc(C#N)cc2)C[C@@H]1c1nc2ccccc2[nH]1", "inactive"],
  ["O=C(Nc1ccc(Oc2ccc(Nc3nc4ccccc4s3)cc2)cc1)Nc1ccc(Cl)c(C(F)(F)F)c1", "inactive"]
]}
